Reference source: PubChem BioAssay AID1159580

Experiment: chemical genetic growth profiling, strain panel (AID 1159580);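 note: tested at 20 µM; growth read once vehicle control cultures reached saturation at 30 °C; 1 = growth at the plate median or of vehicle wells; lower values mean less growth of the strain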
Conditions: S. cerevisiae deletion strains, growth OD, locus YOR070C, strain gyp1, active compounds read low
Out of some 5,500 compounds screened, about 2,000 (36%) were called active. Not shown: some 18% with an inconclusive outcome. The list shows a part of the results.
What normalized growth was measured for each of the following?
Give bare numbers.

Consider the following illustrative entries.
• CC(=O)O[C@H]1C[C@@H](OC(C)=O)C(C)(C)C2CC(=O)[C@]3(C)C(CC[C@@]4(C)[C@H](c5ccoc5)OC(=O)[C@H]5O[C@]543)[C@]21C (some centres not stated) = 1.01
• C[C@H](CCC(=O)O)[C@H]1CCC2C3C(CC[C@@]21C)[C@@]1(C)CC[C@@H](O)C[C@H]1C[C@H]3O (some centres not stated) = 1.01
• CCCCCC1C(=O)CCC1CC(=O)O (configuration not stated) = 0.99
• O=C(O)CCCOc1ccc(Cl)cc1Cl = 0.947
• C=C1C(C2(C)C=CC(=O)C(C)(C)C2CC(=O)OC)CC[C@@]2(C)[C@H](c3ccoc3)OC(=O)C3OC132 (some centres not stated) = 0.993

Hey, can you go through the list below and give me normalized growth for every item?
1. C[C@H](N)[C@H](O)c1cccc(O)c1
2. CCCC(C(=O)OCCN(CC)CC)(c1ccccc1)c1ccccc1
3. C=C[C@H]1CN2CC[C@H]1C[C@@H]2[C@H](O)c1ccnc2ccccc12
4. CC(=O)Nc1nnc(S(N)(=O)=O)s1
5. c1ccc2nc(N3CCNCC3)ccc2c1
6. C=C1C2CC[C@@]3(C)[C@H](c4ccoc4)OC(=O)C[C@]13O[C@H]1CC(=O)C(C)(C)C(CC(=O)OC)[C@@]21C (some centres not stated)
7. CN(CCC(N)CC(=O)N[C@H]1C=CC(n2ccc(N)nc2=O)O[C@@H]1C(=O)O)C(=N)N (some centres not stated)
8. COc1c2ccoc2nc2c(OC)c(OCC(O)C(C)(C)O)ccc12 (configuration not stated)

1.01
1
1
1
1
1.01
0.962
1

---

What normalized growth was measured for each of the following?
Test: chemical genetic growth profiling, strain panel (AID 1159580)
Conditions: S. cerevisiae deletion strains, growth OD, locus YAL013W, strain DEP1, active compounds read low
Out of some 5,500 compounds screened, about 2,000 (36%) were called active. Not shown: some 18% with an inconclusive outcome. Some of the results follow.
Give bare numbers.

* CCS(=O)(=O)Nc1cccc(C(=C2CCCCC2)c2cnc[nH]2)c1 | 0.982
* N[C@@H](Cc1ccc(O)c(I)c1)C(=O)O | 0.997
* CCCCCC1C(=O)CCC1CC(=O)OC (stereo not drawn) | 0.988

Hey, can you go through the list below and give me normalized growth for every item?
1. CC(=O)Nc1ccc(S(=O)(=O)Nc2ncccn2)cc1
2. N[C@@H](Cc1c[nH]c2ccc(O)cc12)C(=O)O
3. CC(=O)Nc1ccc(S(=O)(=O)NC2Cc3ccccc3C2)cc1
4. N[C@@H](Cc1cc(I)c(Oc2ccc(O)c(I)c2)c(I)c1)C(=O)O
5. N#Cc1cccc(Cn2c(=O)oc3ccccc32)c1

1. 1.01
2. 1.02
3. 1.01
4. 1.02
5. 0.988

Hey, can you go through the list below and give me normalized growth for every item?
1. NC(CCCP(=O)(O)O)C(=O)O (stereo not drawn)
2. Cc1ccc(OCc2nnc(SCC(=O)Nc3cccc4c3OCO4)n2-c2ccccc2)c2c1CCC2
3. O=C(NNc1c(Cl)cc(Cl)cc1Cl)NC(=O)c1ccccc1F
4. CN[C@@H]1[C@H](OC2[C@H](O[C@H]3[C@H](O)[C@@H](O)[C@H](N=C(N)N)[C@@H](O)[C@@H]3N=C(N)N)O[C@@H](C)[C@]2(O)C=O)O[C@@H](CO)[C@H](O)[C@H]1O (stereo partly drawn)
5. O=C(Nc1nncs1)c1ccncc1

1. 0.993
2. 1.01
3. 0.997
4. 1
5. 0.983

Hey, can you go through the list below and give me normalized growth for every item?
1. CNCCCN1c2ccccc2CCc2ccccc21
2. COc1ccc(-n2c(-c3ccc(C)cc3)csc2=N)cc1
3. NS(=O)(=O)c1cc2c(cc1Cl)NC(C1CC3C=CC1C3)NS2(=O)=O (stereo not drawn)
4. COC(=O)CCC(=O)O[C@H]1CCC2(C)C(CCC3C2C(=O)[C@@H](O)C2(C)C3CC3OC4(CCC(C)CO4)[C@@H](C)C32)C1 (stereo partly drawn)

1. 0.993
2. 0.996
3. 1
4. 0.991

response.value for CC(=O)OCC1=C(C(=O)O)N2C(=O)C(NC(=O)Cc3cccs3)C2SC1 (stereo not drawn) (field: normalized growth) = 1.01

---

Test: chemical genetic growth profiling, strain panel (AID 1159580);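 note: tested at 20 µM; growth read once vehicle control cultures reached saturation at 30 °C; 1 = growth at the plate median or of vehicle wells; lower values mean less growth of the strain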
Details: S. cerevisiae deletion strains, growth OD, locus YLL026W
Among all 5,500 compounds or so, about 2,000 (36%) were called active. Inconclusive results (about 18%) are left out. No stated cut-off is given here; in the data, active means normalized growth mostly below about 0.91 (no sharp cut-off); inconclusive means no clear call, values can overlap the other calls; inactive means mostly above about 0.92. Some of the results follow.
The categories you may choose from are TRUE for active, FALSE for inactive

Use the examples below as a reference point.
* NC(N)=O | FALSE
* Nc1cc(-c2ccncc2)c[nH]c1=O | TRUE
* O=c1cc(-c2cc(O)c(O)c(O)c2)oc2cc(O)cc(O)c12 | FALSE
* COc1c2ccccc2nc2occc12 | FALSE
* C=Cc1c(C)c2[n-]c1=Cc1[n-]c(c(CC)c1C)C=c1[n-]c3c(c1C)C(=O)C(C(=O)[O-])C=3c1[n-]c(c(C)c1CCC(=O)[O-])C=2.[Cu] (configuration not stated) | TRUE

Recorded test call requested for Cc1nc2ccccn2c(=O)c1CCN1CCC(C(=O)c2ccc(F)cc2)CC1
FALSE

Recorded test call requested for CCCCCC1C(=O)CCC1CC(=O)OC (configuration not stated)
FALSE

Recorded test call requested for O=c1cc(-c2ccccc2)oc2cc(O)c(O)cc12
FALSE

---

What normalized growth was measured for each of the following?
Assay: chemical genetic growth profiling, strain panel (AID 1159580);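 note: tested at 20 µM; growth read once vehicle control cultures reached saturation at 30 °C; 1 = growth at the plate median or of vehicle wells; lower values mean less growth of the strain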
Conditions: S. cerevisiae deletion strains, growth OD, locus YLR320W, strain mms22, active compounds read low
Hit rate of the full screen: of about 5,500 compounds, about 2,000 (36%) were called active. Another 18% or so got no clear call; they are omitted. The list shows a part of the results.
Answers are plain numbers.

Consider the following illustrative entries.
* CC(C)CCCC(C)C1CCC2C3CC[C@H]4CCCC[C@]4(C)C3CC[C@]12C (stereo partly specified) | 1.02
* NNCCc1ccccc1 | 1.02
* CC(=O)O[C@H]1C[C@@H](OC(C)=O)C(C)(C)C2CC(=O)[C@]3(C)C(CC[C@@]4(C)[C@H](c5ccoc5)OC(=O)[C@H]5O[C@]543)[C@]21C (stereo partly specified) | 1.01
* NC(Cc1ccc(F)cc1)C(=O)O (stereo unspecified) | 1.02
* O=C(Nc1ccccc1)Nc1ccccc1 | 0.99

Next compound, normalized growth to be filled in.
response.value for CN(C)CCOC(=O)COc1ccc(Cl)cc1 (field: normalized growth) = 1.01

---

What normalized growth was measured for each of the following?
Assay: chemical genetic growth profiling, strain panel (AID 1159580);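 note: tested at 20 µM; growth read once vehicle control cultures reached saturation at 30 °C; 1 = growth at the plate median or of vehicle wells; lower values mean less growth of the strain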
Settings: S. cerevisiae deletion strains, growth OD, locus YHR200W, strain rpn10, active compounds read low
Hit rate of the full screen: of about 5,500 compounds, about 2,000 (36%) were called active. Not shown: some 18% with an inconclusive outcome. The list shows a part of the results.
Answers are plain numbers.

Consider the following illustrative entries.
* COC(=O)CCC(C)C1CCC2C3CC[C@@H]4C[C@H](O)CC[C@]4(C)C3C[C@H](O)[C@]12C (some centres not stated) | 1.02
* CCC(=O)Nc1ccc(Cl)c(Cl)c1 | 1
* C[C@@H]1O[C@@H](O[C@H]2C[C@@H](O)[C@]3(CO)C4C(CC[C@]3(O)C2)[C@@]2(O)CC[C@H](C3=CC(=O)OC3)[C@@]2(C)C[C@H]4O)[C@H](O)[C@H](O)[C@H]1O (some centres not stated) | 0.999
* NNCCc1ccccc1 | 0.989
* CC1(C)C(O)CC(O)C2(C)C1CC(O)C1(C)C2CCC2(C)C(c3ccoc3)OC(=O)C3OC321 (configuration not stated) | 1.01

Hey, can you go through the list below and give me normalized growth for every item?
1. N[C@@H]1[C@@H](O)[C@H](O)[C@@H](CO)O[C@H]1O
2. CC(=O)N=c1sc(S(N)(=O)=O)nn1C
3. N#C/C(=C\c1cccc(O)c1)C(=O)O
4. CN1CCN(C2=Nc3ccccc3Oc3ccc(Cl)cc32)CC1
5. CC(CCC(=O)O)[C@H]1CCC2C3C(C[C@H](O)[C@@]21C)[C@@]1(C)CC[C@@H](O)C[C@H]1C[C@H]3O (some centres not stated)

1: 1.01; 2: 1.01; 3: 1; 4: 0.987; 5: 0.994
